Biological target: T1, rhesus recombinant CD70 (FLAG-TNC-rhesus CD70) (rhesus macaque (Macaca mulatta), UniProt F7GPA5 174-316)
T1 construct: also called rhesus Flag-TNC-CD70; Rhesus monkey; not shown: Flag tag and TNC trimerisation domain
T1 sequence: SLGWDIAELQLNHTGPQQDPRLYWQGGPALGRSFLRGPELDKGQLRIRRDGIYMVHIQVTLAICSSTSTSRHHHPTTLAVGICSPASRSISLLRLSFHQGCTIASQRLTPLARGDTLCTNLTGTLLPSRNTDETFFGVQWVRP
Test: Biacore, Fab over immobilised rhesus CD70
Would you kindly list log10(koff) for each of these binders?
Hey, these are logged values: log10 of koff, s⁻¹ being the unit before logging.

Can you look up the measured log10(koff) of 57B6 Fab (Fab, V domains shown, Llama-derived Fab from phage display; MYC tag at C-terminus of Fd) VH: QLQLVESGGGLVQPGGSLRLSCAASGFSFSHYAMSWVRQAPGKGLEWVSGDNTYDGGTRYQDSVKGRFTISRDNGKNTLYLQMNSLKPEDTAVYYCAKDTGRGIMGEYGMDYWGKGTLVTVSS VL: QTVVTQEPSLSVSPGGTVTLTCGLKSGSVTSSNYPAWYQQTPGQAPRLLIYNTNSRHSGVPSRFSGSISGNKAALTITGAQPEDEADYYCALYMGSGSANAMFGGGTHLTVLG for me?
-4.40

I have this binder here, 9D1 Fab (Fab, V domains shown, Llama-derived Fab from phage display; MYC tag at C-terminus of Fd) VH: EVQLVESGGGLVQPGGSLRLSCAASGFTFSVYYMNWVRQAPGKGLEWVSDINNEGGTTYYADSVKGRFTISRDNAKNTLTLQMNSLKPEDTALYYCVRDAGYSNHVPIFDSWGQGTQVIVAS VL: QAVVTQEPSLSVSPGGTVTLTCGLSSGSVTSSHYPGWYQQTPGQAPRLLIFNTNSRHSGVPSRFSGSISGNKAALTITGAQPEDEADYYCALLNIDDGSTMFGGGTHLTVLG , and I need its recorded log10(koff).
-3.70

GET /values?readout=log10(koff)&item= 9G2 Fab (Fab, V domains shown, Llama-derived Fab from phage display; MYC tag at C-terminus of Fd) VH: QVQLVESGGGLMQPGGSLRLSCAASGFTFSSSAMSWVRQAPGKGLEWVSSIYSDSSYTYYADSVKSRFTISTDNAKNTLYLQMNSLKPDDTAVYYCAGSSDYEGSFASWGQGTQVTVSS VL: QSVVTQPPSLSASPGSSVRLTCTLSSGNSVGNYDISWYQQKAGSPPRYLLYYYSDSVKHQGSGVPSRFSGSSDASANAGLLLISGLQPEDEADYYCSAYKSGSHVFGGGTKLTVLG
-3.74

# lookup: log10(koff) of 1C2 Fab (Fab, V domains shown, Llama-derived Fab from phage display; MYC tag at C-terminus of Fd) VH: ELQVVESGGGLVQPGGSLRLSCAASGFTLSNYWMHWVRQAPRKGLEWVSTISTDNSRTYYADSVKGRFTISRDHAKNTLILQMNSLKSEDTAVYYCIRGSDYEHWGQGTQVTVSS VL: QTVVTQEPSLSVSPGGTVTLTCGLSSGSVTTTNYPGWFQQTPGQAPRTLIYSTSSRHSGVPSRFSGSISGNKAALTITGAQPEDEADYYCALEEIGSYTYMFGGGTHLTVLG
-3.49

Using the record for 9B2 Fab (Fab, V domains shown, Llama-derived Fab from phage display; MYC tag at C-terminus of Fd) VH: QLQVVESGGGLMQPGGSLRLSCAASGFTFSGSAMSWVRQAPGKGLEWVSSIYSHSMYTYYADSVKSRFTISTDNAKNTLYLQMNSLKPDDTAVYYCAASSDYEGLFVSWGQGTQVTVSS VL: QAVLTQPPSLSASPGSSVRLTCTLNSANSVGSYDISWYQQKAGSPPRYLLYYYSDSLSHQGSGVPSRFSGSTDASANAGLLLISGLQPEDEADYYCSAYNRGSHVFGGGTKLTVLG , report its log10(koff).
-3.21

Requested field: log10(koff). Item: 4D2 Fab (Fab, V domains shown, Llama-derived Fab from phage display; MYC tag at C-terminus of Fd) VH: QVQLQESGPGLVKPSQTLSLACTVSGGSITTSYYYWSWIRQPPGKGLEWMGAIGSRGSTYYSPSLKTRTSISRDTSKNQFTLQLSSVTPEDTAVYYCARVTGEITYNSGSYYYTLNLFDYWGQGTQVTVSS VL: QSVLTQPPSLSASPGSSVRLTCTLSSGNSVGNYDISWYQQKAGSPPRYLLYYYSDSYKNQGSGVPSRFSGSKDPSANAGLLLISGLQAEDEADYYCSVSNSGTYKPVFGGGSKLTVLG
-3.54

Suppose we examine the binder 5F4 Fab (Fab, V domains shown, Llama-derived Fab from phage display; MYC tag at C-terminus of Fd) VH: EVQVQESGGGLVHPGGSLKLSCAASGFTFDTYAMSWVRQAPGKGLEWVSAISWSGGETFYAESMKGRFTISRNNAKNTLYLQMNSLKSEDTAVYYCARGMGLAEGLTDWGQGTQVTVSS VL: QAVVTHPPSLSASPGSSVRLTCTLISGDNIGGYDISWYQQKTGSPPRYLLYYYSDSYKHQSSGVPSRFSGSKDASANAGLLLISGLQSEDEADYYCSAYKSGSYKAPVFGGGTHLTVLG ; what log10(koff) value has been reported?
-3.30

What value of measured log10(koff) is listed for 9E1 Fab (Fab, V domains shown, Llama-derived Fab from phage display; MYC tag at C-terminus of Fd) VH: EVQLQESGGGVVQPGGSLRLSCAASGFTFDDYAMSWVRQAPGKGLEWVSSIYMYDSSTYYADSVKGRFTISTDNAKNTVYLQMNSLKSEDTAVYYCAKDINRSYGSSWSHFGPIFSSWGQGTQVTVSS VL: QAVVTQEPSLSVSPGGTVTLTCGLTSGSVTSSNYPDWYQQTPGQAPRLLIYNTNSRHSGVPSRFSGSISGNKAALTITGAQPEDEADYYCNLYMGSGGSKVFGGGTKLTVLG ?
-3.70
